# Method summary: GFP drop in mixed WT/humanized-ribosome E. coli culture – GFP/RFP fluorescence, OD600, single point, bacterial rRNA inhibitor project, primary screen (AID 720706)
# Condition info: E. coli WT GFP vs humanized-ribosome RFP mutants, 24 h; measured here: RFP humanized mutant strains, DMSO median 0, no signal -100, concentration not given here
Out of some 350,000 compounds screened, about 5,500 (1.6%) were called active. For the sample, actives were picked, then their nearest neighbours and some compounds at random.
Recorded metric: RFP signal change (%)
Value expressed in %; do not type the unit.

[[record]]
structure_smiles = "CCCN(C)C[C@@H]1Oc2ncc(-c3ccccc3F)cc2C(=O)N([C@@H](C)CO)C[C@@H]1C"
value = -1.32


## Input Please give measured RFP signal change of the following entry: COCCNC(=O)C[C@H]1C[C@H]2c3cc(NS(C)(=O)=O)ccc3O[C@H]2[C@H](CO)O1
## Output -2.39

## Input Please give measured RFP signal change of the following entry: C[C@H]1CN([C@@H](C)CO)C(=O)c2cc(NC(=O)Nc3ccc4c(c3)OCO4)ccc2O[C@H]1CN(C)S(=O)(=O)c1ccc(F)cc1
## Output 3.46

## Input Please give measured RFP signal change of the following entry: COCC(=O)Nc1ccc2c(c1)C(=O)N(C)C[C@@H](OC)[C@@H](C)CN(CC1CCCCC1)[C@@H](C)CO2
## Output -0.068

----------
# Method summary: GFP drop in mixed WT/humanized-ribosome E. coli culture – GFP/RFP fluorescence, OD600, single point, bacterial rRNA inhibitor project, primary screen (AID 720706)
# Condition info: E. coli WT GFP vs humanized-ribosome RFP mutants, 24 h, DMSO median 0, no signal -100
The whole screen tested about 350,000 compounds, of which about 5,500 (1.6%) were called active.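 Rule for the calls: active = significant combined selectivity score with lowered wild-type GFP, culture density cut under 30%, mutant RFP and density less affected; inactive = any of these conditions unmet.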 The sample holds actives, similar compounds and a random draw of the others, so the mix is not that of the screen.
Assign a class; possible classes are YES (active), NO (inactive)

[[record]]
structure_smiles = "O=C(Nc1ccccc1)Oc1cccc2cccnc12"
group_label = "NO"

[[record]]
structure_smiles = "C[C@@H]1CN([C@H](C)CO)C(=O)c2cccc(NS(=O)(=O)c3ccc(F)cc3)c2O[C@@H]1CN(C)S(=O)(=O)c1ccc(Cl)cc1"
group_label = "NO"

[[record]]
structure_smiles = "COc1ccc(S(=O)(=O)N[C@@H]2CC[C@@H](CC(=O)N3CCC(Cc4ccccc4)CC3)O[C@@H]2CO)cc1"
group_label = "NO"


## Input Could you please tell me the result logged for CC(=O)N(C)C[C@@H]1Oc2ccc(N)cc2CC(=O)N(C)C[C@H]1C in this assay?
## Output NO

## Input Could you please tell me the result logged for O=C(Nc1ccccc1Cl)Nc1cccc2cccnc12 in this assay?
## Output YES

----------
# Method summary: GFP drop in mixed WT/humanized-ribosome E. coli culture – GFP/RFP fluorescence, OD600, single point, bacterial rRNA inhibitor project, primary screen (AID 720706)
# Condition info: E. coli WT GFP vs humanized-ribosome RFP mutants, 24 h; measured here: RFP humanized mutant strains, DMSO median 0, no signal -100, concentration not given here
Hit rate of the full screen: of about 350,000 compounds, about 5,500 (1.6%) were called active. This is one part of a sample in which actives are shown more often than they occur.
Recorded metric: RFP signal change
Include the unit right after the number.

[[record]]
structure_smiles = "C[C@@H]1CN([C@@H](C)CO)C(=O)c2cc(-c3ccc(F)cc3)cnc2O[C@H]1CN(C)C(=O)c1ccncc1"
recorded_metric = "RFP signal change"
value = "-6.6%"

[[record]]
structure_smiles = "C[C@@H]1CN([C@H](C)CO)C(=O)c2cc(NC(=O)Nc3ccccc3)ccc2O[C@@H](C)CCCCO[C@@H]1CN(C)S(=O)(=O)c1ccc(F)cc1"
recorded_metric = "RFP signal change"
value = "-3.62%"

[[record]]
structure_smiles = "COc1ccc2c3c(n(C)c2c1)[C@H](CO)N(C(=O)c1ccc(F)cc1)CC31CCN(C(C)=O)CC1"
recorded_metric = "RFP signal change"
value = "-3.57%"


Then there is this molecule:
## Input Please give measured RFP signal change of the following entry: Fc1cccc(Cl)c1CSc1ccc(-c2ccco2)nn1
## Output 0.773%
